meta.source: paper PMC12841663

- measurement_description: Cytotoxicity of pure compounds on Vero cells (MTT)
- Assay type: cell-based
- experimental_conditions: African green monkey, Vero cells (kidney cells); 48 h exposure; 50% Vero cell mortality; MTT; read-out: Vero Cells CC50
reported_endpoint: CC50 at 48 h

>>> reported_result("C=C[C@]1(C)CC(=O)C(=C(C)C)C[C@H]1C(=C)C")
"> 100 µg/mL"
>>> reported_result("CC(C)=C1CC(=O)[C@]2(C)CC[C@H]2[C@@H](C)CC1=O")
"> 100 µg/mL"
>>> reported_result("C/C1=C\\CC2(OC2(C)C)C(=O)C/C(C)=C/CC1 (stereo not drawn)")
"> 100 µg/mL"
